# ASSAY_TARGET: Vascular endothelial growth factor receptor 2 (Homo sapiens) (UniProt P35968)
# Sequence (P35968 whole entry): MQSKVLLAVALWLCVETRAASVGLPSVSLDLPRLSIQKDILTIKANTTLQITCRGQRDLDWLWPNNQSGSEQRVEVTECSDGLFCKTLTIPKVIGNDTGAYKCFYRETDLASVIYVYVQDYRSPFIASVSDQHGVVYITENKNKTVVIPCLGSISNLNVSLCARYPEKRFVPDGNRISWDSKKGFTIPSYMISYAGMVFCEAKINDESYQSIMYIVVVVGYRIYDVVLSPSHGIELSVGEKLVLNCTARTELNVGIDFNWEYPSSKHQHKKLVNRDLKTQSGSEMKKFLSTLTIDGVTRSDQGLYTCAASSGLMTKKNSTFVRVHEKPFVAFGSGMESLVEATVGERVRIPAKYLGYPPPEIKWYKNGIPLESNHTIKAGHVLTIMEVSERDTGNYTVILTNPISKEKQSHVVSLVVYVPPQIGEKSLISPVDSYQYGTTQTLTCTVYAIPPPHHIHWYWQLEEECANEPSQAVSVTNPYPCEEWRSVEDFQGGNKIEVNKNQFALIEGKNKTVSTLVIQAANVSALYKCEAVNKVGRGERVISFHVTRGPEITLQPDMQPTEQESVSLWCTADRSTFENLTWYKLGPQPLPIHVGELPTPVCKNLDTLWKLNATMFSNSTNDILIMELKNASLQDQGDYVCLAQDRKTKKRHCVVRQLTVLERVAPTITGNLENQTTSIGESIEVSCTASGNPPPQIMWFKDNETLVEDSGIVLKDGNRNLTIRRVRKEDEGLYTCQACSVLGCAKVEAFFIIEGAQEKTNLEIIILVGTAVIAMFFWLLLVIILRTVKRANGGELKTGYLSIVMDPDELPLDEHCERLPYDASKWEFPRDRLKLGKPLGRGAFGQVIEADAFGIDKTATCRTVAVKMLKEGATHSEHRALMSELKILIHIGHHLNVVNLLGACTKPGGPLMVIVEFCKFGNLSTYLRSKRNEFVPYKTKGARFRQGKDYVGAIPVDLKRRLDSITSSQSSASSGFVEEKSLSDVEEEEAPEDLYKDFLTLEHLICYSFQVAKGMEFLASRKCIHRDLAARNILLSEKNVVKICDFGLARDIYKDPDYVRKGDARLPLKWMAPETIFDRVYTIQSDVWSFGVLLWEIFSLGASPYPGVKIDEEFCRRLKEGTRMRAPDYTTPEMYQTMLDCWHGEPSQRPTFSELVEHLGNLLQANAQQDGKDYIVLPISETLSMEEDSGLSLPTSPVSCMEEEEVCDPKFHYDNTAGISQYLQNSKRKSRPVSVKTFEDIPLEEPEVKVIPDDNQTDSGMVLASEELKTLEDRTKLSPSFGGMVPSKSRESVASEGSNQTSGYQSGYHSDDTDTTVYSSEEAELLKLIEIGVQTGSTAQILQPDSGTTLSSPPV
# SETUP_CONDITIONS: at 10 µM
In plain terms, low residual activity, meaning strictly below 60%, gives Met, and everything else gives Not met.

The examples below pair each entry with its known result.
{"columns": ["SMILES_TEXT", "GROUP_LABEL"],
 "data": [
  ["Cn1nc2c3c(cccc31)C(=O)c1ccccc1-2", "Met"],
  ["Cc1ccc(S(=O)(=O)/C=C/C#N)cc1", "Not met"],
  ["O=C1NC(=O)c2c1c1c3ccccc3[nH]c1c1[nH]c3cc(Br)ccc3c21", "Met"],
  ["O=[N+]([O-])c1ccc(-c2nc(-c3ccc(F)cc3)c(-c3ccncc3)[nH]2)cc1", "Not met"],
  ["CO[C@@H]1[C@H](N(C)C(=O)c2ccccc2)C[C@H]2O[C@]1(C)n1c3ccccc3c3c4c(c5c6ccccc6n2c5c31)C(=O)NC4", "Met"],
  ["COc1cc2ncnc(Nc3ccc(Oc4ccccc4)cc3)c2cc1OC", "Met"],
  ["O=C1NC(=O)/C(=C\\c2ccc3nccnc3c2)S1", "Not met"],
  ["Cc1nc(-c2ccccc2)c(-c2ccncc2)o1", "Not met"]
]}

Report whether reported residual activity is lower than 60% (strictly) for CO[C@H]1[C@@H](OC)C[C@H](C)[C@@H](OC)C2=CC(=O)C=C(NC(=O)/C(C)=C/C=C/[C@H](OC)[C@@H](OC(N)=O)/C(C)=C/[C@@H]1C)C2=O
Not met

Field: below-cutoff. Rule: recorded residual activity strictly less than 60%. Subject: Nc1nc(Nc2ccc(S(N)(=O)=O)cc2)nn1C(=S)Nc1c(F)cccc1F
Met

Is the reported residual activity for O=C(O)c1ccc2c3c1cccc3c(=O)n1c3ccccc3nc21 strictly below 60%?
Met

Regarding c1ccc(-c2n[nH]cc2-c2ccnc3ccccc23)nc1 , kindly confirm whether its residual activity is beneath 60%.
Met

Here's an entry: O=C1Nc2cc(Br)ccc2/C1=C1/Nc2ccccc2/C1=N\O . Is its residual activity below 60%?
Met

I wonder whether C[C@@H](N)[C@H]1CC[C@H](C(=O)Nc2ccncc2)CC1 has residual activity below 60%. Can you tell?
Not met

hey, is residual activity for Cc1cc(Nc2nc(-c3ccccc3)nc3ccccc23)n[nH]1 lower than 60% or not?
Met

Does COc1cc2ncnc(N3CCN(C(=O)Nc4ccc(Oc5ccccc5)cc4)CC3)c2cc1OC have residual activity strictly under 60%?
Met

* * *

# ASSAY_TARGET: Homeodomain-interacting protein kinase 2 (Homo sapiens) (UniProt Q9H2X6)
# Sequence (Q9H2X6 whole entry, looked up): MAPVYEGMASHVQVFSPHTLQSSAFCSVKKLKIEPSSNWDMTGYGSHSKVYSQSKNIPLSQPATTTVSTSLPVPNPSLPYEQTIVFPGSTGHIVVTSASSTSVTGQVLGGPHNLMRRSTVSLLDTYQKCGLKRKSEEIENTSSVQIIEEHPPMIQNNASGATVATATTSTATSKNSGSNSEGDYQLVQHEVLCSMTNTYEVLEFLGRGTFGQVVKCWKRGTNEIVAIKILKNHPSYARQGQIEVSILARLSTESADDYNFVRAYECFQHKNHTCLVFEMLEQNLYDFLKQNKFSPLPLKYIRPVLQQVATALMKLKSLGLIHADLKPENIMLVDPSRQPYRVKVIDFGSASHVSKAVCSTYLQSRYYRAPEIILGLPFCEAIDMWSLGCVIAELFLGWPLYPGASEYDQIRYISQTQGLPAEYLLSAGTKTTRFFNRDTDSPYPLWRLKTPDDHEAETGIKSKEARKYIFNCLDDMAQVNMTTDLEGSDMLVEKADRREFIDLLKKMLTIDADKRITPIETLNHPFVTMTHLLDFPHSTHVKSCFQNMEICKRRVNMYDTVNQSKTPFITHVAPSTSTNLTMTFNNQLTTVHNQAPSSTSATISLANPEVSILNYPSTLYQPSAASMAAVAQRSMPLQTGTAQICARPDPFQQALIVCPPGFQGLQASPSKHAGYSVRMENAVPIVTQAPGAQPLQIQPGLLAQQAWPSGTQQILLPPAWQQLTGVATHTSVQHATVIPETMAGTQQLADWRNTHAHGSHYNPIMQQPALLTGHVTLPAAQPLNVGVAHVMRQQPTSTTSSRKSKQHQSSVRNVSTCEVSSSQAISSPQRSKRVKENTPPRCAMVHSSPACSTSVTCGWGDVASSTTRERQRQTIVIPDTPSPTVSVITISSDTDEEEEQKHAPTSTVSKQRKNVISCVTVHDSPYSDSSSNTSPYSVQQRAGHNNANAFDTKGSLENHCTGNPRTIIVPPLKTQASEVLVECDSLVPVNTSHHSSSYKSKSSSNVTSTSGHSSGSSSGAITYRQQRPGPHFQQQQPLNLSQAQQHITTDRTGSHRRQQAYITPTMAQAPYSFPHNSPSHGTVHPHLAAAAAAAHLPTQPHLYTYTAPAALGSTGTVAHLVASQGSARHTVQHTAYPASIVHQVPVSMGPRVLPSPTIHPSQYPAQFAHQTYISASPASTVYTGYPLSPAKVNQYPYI
# SETUP_CONDITIONS: at 10 µM
RECORDED_METRIC: residual activity (%)
Dear colleague, please return just the value in %, with no unit written.

{"columns": ["SMILES_TEXT", "RECORDED_METRIC", "OBSERVED_MEASUREMENT"],
 "data": [
  ["COc1cc2ncnc(Nc3ccc(O)c(Br)c3)c2cc1OC", "residual activity", 75],
  ["CO[C@H]1C[C@@H]2CC[C@@H](C)[C@@](O)(O2)C(=O)C(=O)N2CCCC[C@H]2C(=O)O[C@H]([C@H](C)C[C@@H]2CC[C@@H](O)[C@H](OC)C2)CC(=O)[C@H](C)/C=C(\\C)[C@@H](O)[C@@H](OC)C(=O)[C@H](C)C[C@H](C)/C=C/C=C/C=C/1C", "residual activity", 99]
]}

get_value(item= CC(C)n1cnc2c(NCc3ccccc3)nc(NCCCO)nc21 , readout=residual activity) returns 90

For this molecule ( O=C1NC(=O)/C(=C/c2ccc3c(c2)OC(F)(F)O3)S1 ), measured residual activity is 76

The molecule listed as O=Nc1c(-c2c(O)[nH]c3ccccc23)[nH]c2ccccc12 has a reported residual activity of 8

What the record says about c1ccc2c(-c3ccncc3)c[nH]c2c1 : residual activity is 85

Sure, the documented residual activity for COc1ccc(S(=O)(=O)N(CCO)c2ccccc2CN(C)C/C=C/c2ccc(Cl)cc2)cc1 is 94

For record Cc1cc2ncc(-c3ccccc3)nc2cc1C the listed residual activity is 97

Quick note, residual activity for CCOc1cc2ncnc(Nc3cccc(Br)c3)c2cc1OCC landed at 91

* * *

# ASSAY_TARGET: 3-phosphoinositide-dependent protein kinase 1 (Homo sapiens)
# SETUP_CONDITIONS: at 10 µM
RECORDED_METRIC: residual activity
State the value, then name its unit.

// below: answered molecules
{"columns": ["MOLECULE", "RECORDED_METRIC", "OBSERVED_MEASUREMENT"],
 "data": [
  ["CCC(=O)Nc1ccc2ncnc(Nc3cccc(Br)c3)c2c1", "residual activity", "107%"],
  ["COc1cc2ncnc(Nc3ccc(Oc4ccccc4)cc3)c2cc1OC", "residual activity", "120%"]
]}

The recorded residual activity for entry NC(=O)c1ccc2[nH]c(-c3ccc(Oc4ccc(Cl)cc4)cc3)nc2c1 equals 107%

Quick note, residual activity for O=C(Nc1cccc(Nc2nccc(Nc3cccc(C(F)(F)F)c3)n2)c1)C1CC1 landed at 93%

For CCN(CC)CCCCN1c2ccccc2Oc2ccc(Cl)cc21 the molecule record lists residual activity as 138%

Per the records, this molecule ( N#Cc1cnc2cnc(NCc3cccnc3)cc2c1Nc1ccc(F)c(Cl)c1 ) has residual activity equal to 41%

Noted for O=C1Nc2ccc(Br)cc2/C1=C\c1cc2c([nH]1)CCCC2 : its residual activity reads 99%

Notebook: CC#CC(=O)Nc1cc2c(Nc3ccc(F)c(Cl)c3)ncnc2cn1 , residual activity read as 100%

// sample COc1ccc(S(=O)(=O)N(CCO)c2ccccc2CN(C)C/C=C/c2ccc(Cl)cc2)cc1 , its residual activity was 114%

Record summary for O=C1Nc2cc(Br)ccc2/C1=C1/Nc2ccccc2/C1=N\O : reported residual activity = 37%

Please fill in: residual activity reported for O=C1Nc2ccccc2/C1=C1/Nc2ccccc2/C1=N\OCCC(O)CO (stereo unspecified) = 6%

* * *

Property: residual activity; scope: individual molecules
# ASSAY_TARGET: Tyrosine-protein kinase Tec (Homo sapiens)
# SETUP_CONDITIONS: at 1 µM
Report the value in % with no unit label.

{"columns": ["SMILES_TEXT", "OBSERVED_MEASUREMENT"],
 "data": [
  ["Cc1cccc(-c2[nH]c(C(C)(C)C)nc2-c2ccc3c(c2)OCO3)n1", 97],
  ["CO[C@H]1C[C@@H]2CC[C@@H](C)[C@@](O)(O2)C(=O)C(=O)N2CCCC[C@H]2C(=O)O[C@H]([C@H](C)C[C@@H]2CC[C@@H](O)[C@H](OC)C2)CC(=O)[C@H](C)/C=C(\\C)[C@@H](O)[C@@H](OC)C(=O)[C@H](C)C[C@H](C)/C=C/C=C/C=C/1C", 96]
]}

Kindly note the recorded residual activity for Cc1cc(Nc2nc(-c3ccccc3)nc3ccccc23)n[nH]1 , which is 38

molecule Cc1nc2cc3nc(-c4cccs4)cnc3cc2n1C , residual activity observed: 83

* * *

# ASSAY_TARGET: Serine/threonine-protein kinase PLK1 (Homo sapiens) (UniProt P53350)
# Sequence (P53350 whole entry): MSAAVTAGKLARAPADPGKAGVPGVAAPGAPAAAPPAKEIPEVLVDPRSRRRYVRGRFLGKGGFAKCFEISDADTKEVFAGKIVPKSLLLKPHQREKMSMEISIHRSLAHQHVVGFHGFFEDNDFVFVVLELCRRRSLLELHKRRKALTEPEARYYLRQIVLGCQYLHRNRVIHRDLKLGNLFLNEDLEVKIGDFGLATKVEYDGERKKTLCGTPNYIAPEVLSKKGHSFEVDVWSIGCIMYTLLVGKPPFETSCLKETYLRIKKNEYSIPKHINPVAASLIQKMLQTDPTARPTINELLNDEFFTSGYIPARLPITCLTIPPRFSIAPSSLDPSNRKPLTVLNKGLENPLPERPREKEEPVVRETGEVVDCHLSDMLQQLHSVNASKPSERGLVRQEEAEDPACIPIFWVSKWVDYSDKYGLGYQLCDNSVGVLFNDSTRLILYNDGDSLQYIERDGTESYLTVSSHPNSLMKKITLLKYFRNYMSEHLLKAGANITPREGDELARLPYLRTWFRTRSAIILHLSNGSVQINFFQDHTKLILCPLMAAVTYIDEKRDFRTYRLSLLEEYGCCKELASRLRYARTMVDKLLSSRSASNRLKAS
# SETUP_CONDITIONS: at 1 µM
RECORDED_METRIC: residual activity

{"columns": ["SMILES_TEXT", "ASSAY_TARGET", "residual activity"],
 "data": [
  ["Oc1ccc(-c2nc(-c3ccc(F)cc3)c(-c3ccncc3)[nH]2)cc1", "Serine/threonine-protein kinase PLK1 (Homo sapiens) (UniProt P53350)", "94%"]
]}

GET /value?item= Nc1n[nH]c2nnc(-c3c(-c4ccccc4)nn4ccccc34)cc12 &field=residual activity returns 78%

The molecule listed as CCOc1cc2ncnc(Nc3cccc(Br)c3)c2cc1OCC shows residual activity equal to 80%

# residual activity of O=C(Nc1cccc(Nc2nccc(Nc3cccc(C(F)(F)F)c3)n2)c1)C1CC1 = 78%

Entry under test: Nc1cccc(-c2cc3c(Oc4cccc(O)c4)ncnc3[nH]2)c1 . Its residual activity was 78%

Memo: O=Nc1c(-c2c(O)[nH]c3ccccc23)[nH]c2ccccc12 , reported residual activity: 83%

In plain terms, c1ccc2c(-c3ccncc3)c[nH]c2c1 has a documented residual activity of 86%

* * *

# ASSAY_TARGET: Casein kinase I isoform delta (Homo sapiens) (UniProt P48730)
# Sequence (P48730 whole entry, looked up, canonical isoform): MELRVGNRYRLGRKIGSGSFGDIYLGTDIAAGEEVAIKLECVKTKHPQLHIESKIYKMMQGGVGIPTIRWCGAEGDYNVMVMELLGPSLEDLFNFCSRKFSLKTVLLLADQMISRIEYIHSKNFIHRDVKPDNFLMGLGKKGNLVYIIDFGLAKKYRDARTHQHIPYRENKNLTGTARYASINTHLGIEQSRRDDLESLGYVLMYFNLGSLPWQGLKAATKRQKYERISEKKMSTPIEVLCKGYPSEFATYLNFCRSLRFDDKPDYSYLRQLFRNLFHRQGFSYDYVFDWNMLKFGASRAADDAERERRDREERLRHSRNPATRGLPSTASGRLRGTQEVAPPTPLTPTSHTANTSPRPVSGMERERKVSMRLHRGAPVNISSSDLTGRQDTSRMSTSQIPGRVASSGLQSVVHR
# SETUP_CONDITIONS: at 1 µM
# Description: Millipore: Percentage of residual kinase activity of CSNK1D at 1uM relative to control. Control inhibitor: Jnk Inhibitor II at 100.0uM. Buffer: 8 mM MOPS pH 7.0, 0.2 mM EDTA
RECORDED_METRIC: residual activity (%)
Answer with a number only, understood to be in %.

Please review the entries below; each comes with its answer.
{"columns": ["SMILES_TEXT", "residual activity (%)"],
 "data": [
  ["O=C1Nc2cc(Br)ccc2/C1=C1/Nc2ccccc2/C1=N\\O", 51],
  ["CO[C@H]1C[C@@H]2CC[C@@H](C)[C@@](O)(O2)C(=O)C(=O)N2CCCC[C@H]2C(=O)O[C@H]([C@H](C)C[C@@H]2CC[C@@H](O)[C@H](OC)C2)CC(=O)[C@H](C)/C=C(\\C)[C@@H](O)[C@@H](OC)C(=O)[C@H](C)C[C@H](C)/C=C/C=C/C=C/1C", 84],
  ["CO[C@H]1[C@@H](OC)C[C@H](C)[C@@H](OC)C2=CC(=O)C=C(NC(=O)/C(C)=C/C=C/[C@H](OC)[C@@H](OC(N)=O)/C(C)=C/[C@@H]1C)C2=O", 90]
]}

Now for the compound whose residual activity we want.
The compound N#C/C(=C(\N)Sc1ccc(N)cc1)c1ccccc1C(F)(F)F , tested on Casein kinase I isoform delta (Homo sapiens) (UniProt P48730), showed residual activity of 87
